# Tested on: Echinochloa crus-galli (ECHCG)
# MEASUREMENT NOTES: Glasshouse assay for herbicidal activity, pre-/post-emergence (percentage phytotoxicity)
# Assay type: in vivo
# RUN CONDITIONS: Echinochloa crus-galli, pre-emergence, 480 h, Rate 250 g/ha; pre-emergence; visual assessment 20 DAA; 100%=total damage, 0%=no damage; read-out: Pre-emergence herbicidal activity (percentage phytotoxicity), ECHCG PRE
Values of pest or weed control at 250 g/ha strictly less than 70% map to Satisfied, and values of at least 70% map to Not satisfied.

Examples from the recorded data:
>>> qualitative_label("Cc1cc(C)c(C2C(=O)CC(CCNc3ncccc3C#N)C2=O)c(C)c1 (stereo not shown)")
"Not satisfied"
>>> qualitative_label("Cc1cc(C)c(C2C(=O)CC(CCNC(=S)Nc3ccccc3F)C2=O)c(C)c1 (stereo not shown)")
"Satisfied"
>>> qualitative_label("Cc1cc(C)c(C2C(=O)CC(CCNS(=O)(=O)c3ccccc3Cl)C2=O)c(C)c1 (stereo not shown)")
"Satisfied"

Now let's try a different one.
Please state whether pest or weed control at 250 g/ha is below 70% for Cc1cc(-c2ccc(F)cc2)cc(C)c1C1C(=O)CC(CCNC(=O)C2=NOC(C)(C)C2)C1=O (stereo not shown)
Not satisfied

----------
# Test system: Echinochloa crus-galli (ECHCG)
# MEASUREMENT NOTES: Glasshouse assay for herbicidal activity, pre-/post-emergence (percentage phytotoxicity)
# Assay type: in vivo
# RUN CONDITIONS: Echinochloa crus-galli, post-emergence, 360 h, Rate 250 g/ha; post-emergence; visual assessment 15 DAA; 100%=total damage, 0%=no damage; read-out: Post-emergence herbicidal activity (percentage phytotoxicity), ECHCG POST
Items are presented alongside their recorded pest or weed control at 250 g/ha.
Your answer is read as %, so omit the unit and give the number.

>>> quantitative_readout("Cc1cc(C)c(C2C(=O)CC(CCNC(=O)NC(=O)c3c(Cl)cccc3Cl)C2=O)c(C)c1 (centres unmarked) [Compound A52]")
90
>>> quantitative_readout("Cc1cc(-c2ccc(C#N)cn2)cc(C)c1C1C(=O)CC(CCNC(=O)C2=NOC(C)(C)C2)C1=O (centres unmarked) [Compound A119]")
100

Look up and report measured pest or weed control at 250 g/ha for this entry: Cc1cc(C)c(C2C(=O)CC(CCNC(=O)NC(=O)c3ccc(F)cc3F)C2=O)c(C)c1 (centres unmarked) [Compound A53]
100

----------
# System: Echinochloa crus-galli (ECHCG)
# MEASUREMENT NOTES: Glasshouse assay for herbicidal activity, pre-/post-emergence (percentage phytotoxicity)
# Assay type: in vivo
# RUN CONDITIONS: Echinochloa crus-galli, pre-emergence, 480 h, Rate 250 g/ha; pre-emergence; visual assessment 20 DAA; 100%=total damage, 0%=no damage; read-out: Pre-emergence herbicidal activity (percentage phytotoxicity), ECHCG PRE
READOUT LABEL: pest or weed control at 250 g/ha
Answer with the number, then the unit.

Worked set:
>>> result("Cc1cc(C)c(C2C(=O)CC(CCNC(=O)NC(=O)c3ccc(Cl)cc3)C2=O)c(C)c1 (stereo not shown)")
"90%"
>>> result("Cc1cc(-c2ccc(C#N)cn2)cc(C)c1C1C(=O)CC(CCNC(=O)C2=NOC(C)(C)C2)C1=O (stereo not shown)")
"90%"
>>> result("Cc1cc(C)c(C2C(=O)CC(CCNC(=O)NC(=O)c3ccccc3Cl)C2=O)c(C)c1 (stereo not shown)")
"100%"

Note: attention shifts to another entry.
Using the record for Cc1cc(C)c(C2C(=O)CC(CCNC(=O)Nc3ncccn3)C2=O)c(C)c1 (stereo not shown) , state its measured pest or weed control at 250 g/ha.
60%

----------
# System: Echinochloa crus-galli (ECHCG)
# MEASUREMENT NOTES: Glasshouse assay for herbicidal activity, pre-/post-emergence (percentage phytotoxicity)
# Assay type: in vivo
# RUN CONDITIONS: Echinochloa crus-galli, post-emergence, 360 h, Rate 250 g/ha; post-emergence; visual assessment 15 DAA; 100%=total damage, 0%=no damage; read-out: Post-emergence herbicidal activity (percentage phytotoxicity), ECHCG POST
READOUT LABEL: pest or weed control at 250 g/ha (%)
Give the value, in units of %, as a plain number.

Use these answered entries as a reference point.
>>> quantitative_readout("Cc1cc(C)c(C2C(=O)CC(CCNc3ccc(C#N)cn3)C2=O)c(C)c1 (centres unmarked)")
100
>>> quantitative_readout("Cc1cc(C)c(C2C(=O)CC(CCNS(=O)(=O)c3ccc(Cl)c(Cl)c3)C2=O)c(C)c1 (centres unmarked)")
30
>>> quantitative_readout("Cc1cc(-c2ncc(Br)cn2)cc(C)c1C1C(=O)CC(CCNC(=O)C2=NOC(C)(C)C2)C1=O (centres unmarked)")
100
>>> quantitative_readout("Cc1cc(C)c(C2C(=O)CC(CCNC(=O)Nc3cc(C(C)(C)F)ncn3)C2=O)c(C)c1 (centres unmarked)")
80
>>> quantitative_readout("Cc1cc(C)c(C2C(=O)CC(CCNC(=O)N(C)Cc3ccccc3)C2=O)c(C)c1 (centres unmarked)")
90

Return reported pest or weed control at 250 g/ha. Input molecule: Cc1cc(C)c(C2C(=O)CC(CCNc3ncc(F)cn3)C2=O)c(C)c1 (centres unmarked)
100

State its pest or weed control at 250 g/ha for this molecule: Cc1cc(C)c(C2C(=O)CC(CCNC(=O)NC(=O)c3ccc(F)c(F)c3)C2=O)c(C)c1 (centres unmarked)
80

Give me measured pest or weed control at 250 g/ha, please, for this molecule: Cc1cc(C)c(C2C(=O)CC(CCNC(=O)C3=NOC(C)(C)C3)C2=O)c(C)c1 (centres unmarked)
100

----------
Measured pest or weed control at 250 g/ha, listed per entry for reference.
# Test system: Echinochloa crus-galli (ECHCG)
# MEASUREMENT NOTES: Glasshouse assay for herbicidal activity, pre-/post-emergence (percentage phytotoxicity)
# Type: in vivo
# RUN CONDITIONS: Echinochloa crus-galli, post-emergence, 360 h, Rate 250 g/ha; post-emergence; visual assessment 15 DAA; 100%=total damage, 0%=no damage; read-out: Post-emergence herbicidal activity (percentage phytotoxicity), ECHCG POST
Enter your answer as a number in %; do not include the unit.

Some entries whose results are on file:
>>> quantitative_readout("Cc1cc(-n2cc(Cl)cn2)cc(C)c1C1C(=O)CC(CCNC(=O)NOC(C)(C)C)C1=O (centres unmarked)")
90
>>> quantitative_readout("CC#Cc1cc(C)c(C2C(=O)CC(CCNC(=O)NC(C)(C)C)C2=O)c(C)c1 (centres unmarked)")
100
>>> quantitative_readout("Cc1cc(C)c(C2C(=O)CC(CCNC(=O)NC(=O)c3c(F)cccc3F)C2=O)c(C)c1 (centres unmarked)")
100
>>> quantitative_readout("Cc1cc(-c2ncccc2F)cc(C)c1C1C(=O)CC(CCNC(=O)Nc2ccccn2)C1=O.Cl (centres unmarked)")
100
>>> quantitative_readout("Cc1cc(C)c(C2C(=O)CC(CCNC(=O)NC(=O)c3ccccc3C)C2=O)c(C)c1 (centres unmarked)")
80
>>> quantitative_readout("Cc1cc(C)c(C2C(=O)CC(CCNC(=O)NC(=O)c3ccc(C(F)(F)F)cc3)C2=O)c(C)c1 (centres unmarked)")
80
>>> quantitative_readout("Cc1cc(C)c(C2C(=O)CC(CCNC(=S)Nc3ccccc3F)C2=O)c(C)c1 (centres unmarked)")
0

For the next question, use this compound.
Quickly give me recorded pest or weed control at 250 g/ha for Cc1cc(C)c(C2C(=O)CC(CCNS(=O)(=O)c3ccc(C(F)(F)F)cc3)C2=O)c(C)c1 (centres unmarked)
60

----------
# Test system: wheat
# MEASUREMENT NOTES: Post-emergence herbicidal activity against cereal crops (wheat) +/- safener, crop selectivity
# Type: in vivo
# RUN CONDITIONS: 250 g/ha, plus safener cloquintocet-mexyl (CQC) applied at 50 g/ha, 100%=total damage to plant, 0%=no damage
READOUT LABEL: Post-emergence herbicidal activity against wheat (percentage phytotoxicity), +CQC (%)
# number only, unit % dropped from output

Worked set:
>>> quantitative_readout("Cc1cc(C)c(C2C(=O)CC(CCNC(=O)Nc3ccccc3F)C2=O)c(C)c1 (stereo not shown) [Compound A45]")
0
>>> quantitative_readout("Cc1cc(C)c(C2C(=O)CC(CCNC(=O)NC(=O)c3ccc(Cl)c(F)c3)C2=O)c(C)c1 (stereo not shown) [Compound A58]")
20
>>> quantitative_readout("Cc1cc(C)c(C2C(=O)CC(CCNc3ccc(C(F)(F)F)cn3)C2=O)c(C)c1 (stereo not shown) [Compound A34]")
70
>>> quantitative_readout("Cc1cc(C)c(C2C(=O)CC(CCNS(=O)(=O)c3ccc(OC(F)(F)F)cc3)C2=O)c(C)c1 (stereo not shown) [Compound A85]")
10
>>> quantitative_readout("Cc1cc(C)c(C2C(=O)CC(CCNC(=O)NC(=O)c3ccc(F)cc3C(F)(F)F)C2=O)c(C)c1 (stereo not shown) [Compound A69]")
80
>>> quantitative_readout("Cc1cc(C)c(C2C(=O)CC(CCNC(=O)NC(=O)c3ccc(Cl)cc3)C2=O)c(C)c1 (stereo not shown) [Compound A51]")
80
>>> quantitative_readout("Cc1cc(C)c(C2C(=O)CC(CCNC(=O)NC(=O)c3ccccc3Cl)C2=O)c(C)c1 (stereo not shown) [Compound A49]")
90
>>> quantitative_readout("Cc1cc(C)c(C2C(=O)CC(CCNC(=O)N(C)c3ccccn3)C2=O)c(C)c1 (stereo not shown) [Compound A11]")
70

State its Post-emergence herbicidal activity against wheat (percentage phytotoxicity), +CQC: Cc1cc(C)c(C2C(=O)CC(CCN(C)C(=O)Nc3ccccn3)C2=O)c(C)c1 (stereo not shown) [Compound A17]
10

Identify the reported Post-emergence herbicidal activity against wheat (percentage phytotoxicity), +CQC for the following entry. Cc1cc(C)c(C2C(=O)CC(CCNC(=O)Nc3cc(C(F)(F)F)ccn3)C2=O)c(C)c1.Cl (stereo not shown) [Compound A2]
80

Please give the documented Post-emergence herbicidal activity against wheat (percentage phytotoxicity), +CQC of Cc1cc(C)c(C2C(=O)CC(CCNS(=O)(=O)c3ccccc3F)C2=O)c(C)c1 (stereo not shown) [Compound A76]
0

Please list Post-emergence herbicidal activity against wheat (percentage phytotoxicity), +CQC recorded for the molecule Cc1cc(C)c(C2C(=O)CC(CCNS(=O)(=O)c3ccccc3C)C2=O)c(C)c1 (stereo not shown) [Compound A87]
0

Tell us which Post-emergence herbicidal activity against wheat (percentage phytotoxicity), +CQC value is on record for Cc1cc(C)c(C2C(=O)CC(CCNC(=O)NC(=O)c3ccccc3C(F)(F)F)C2=O)c(C)c1 (stereo not shown) [Compound A60]
70

Indicate the recorded Post-emergence herbicidal activity against wheat (percentage phytotoxicity), +CQC value for this molecule: Cc1cc(-n2cc(Cl)cn2)cc(C)c1C1C(=O)CC(CCNC(=O)NC(C)(C)C)C1=O (stereo not shown) [Compound A21]
70

Quick one: give measured Post-emergence herbicidal activity against wheat (percentage phytotoxicity), +CQC for Cc1cc(C)c(C2C(=O)CC(CCNC(=O)N(C)C)C2=O)c(C)c1 (stereo not shown) [Compound A31]
10

Annotate the molecule Cc1cc(C)c(C2C(=O)CC(CCNS(=O)(=O)c3ccc(Cl)cc3)C2=O)c(C)c1 (stereo not shown) [Compound A81] with its measured Post-emergence herbicidal activity against wheat (percentage phytotoxicity), +CQC.
0
